FYI, the data here is from ChEMBL document CHEMBL3044902.

Give inhibition at 100 ppm for every item shown.
- System: Lepidium sativum
- TEST METHOD NOTES: Inhibition of germination of Lepidium sativum at 100 ppm relative to untreated control
- Format: functional
Numbers only, in %.

Consider the worked cases shown below.
MOLECULE	QUANTITY MEASURED	NUMBER
CCOC(=O)C(CC)ON1C(=O)c2ccccc2C1=O (centres undefined)	inhibition at 100 ppm	80
CCCCCCC(ON1C(=O)c2ccccc2C1=O)C(=O)OCC (centres undefined)	inhibition at 100 ppm	0
CCOC(=O)CON1C(=O)c2ccccc2C1=O	inhibition at 100 ppm	100
CCOC(=O)C(Cc1ccccc1)ON1C(=O)c2ccccc2C1=O (centres undefined)	inhibition at 100 ppm	0
CCOC(=O)C(C)ON1C(=O)c2ccccc2C1=O (centres undefined)	inhibition at 100 ppm	100

Working through the 4 molecules below one at a time, give inhibition at 100 ppm for each.
1. CCOC(=O)C(ON1C(=O)c2ccccc2C1=O)c1ccccc1 (centres undefined)
2. CCCC(C)ON1C(=O)c2ccccc2C1=O (centres undefined)
3. CCOC(=O)C(C)CN1C(=O)c2ccccc2C1=O (centres undefined)
4. CCOC(=O)C(C)(C)ON1C(=O)c2ccccc2C1=O

1: 0; 2: 0; 3: 0; 4: 60
